Test system: OCI-Ly1
Experiment: Antiproliferative activity against human OCI-Ly1 cells assessed as growth inhbition by measuring metabolic viability incubated for 48 hrs by fluorometric resazurin reduction method
Type: functional, cell-based
Settings: OCI-Ly1, 48 h
readout kind: IC50 (µM)
Report as a plain number; the unit µM is understood.

Exercise: Observed IC50 on OCI-Ly1 for H-HHHHHHPTATHAGLVATVKEAGRSIHEI-OH , please.
Solution: 11.3

====

System: OCI-Ly7
Experiment: Antiproliferative activity against human OCILY7 cells assessed as growth inhbition by measuring metabolic viability incubated for 48 hrs by fluorometric resazurin reduction method
Assay type: functional, cell-based
Settings: OCI-Ly7, 48 h
readout kind: pIC50
Note: pIC50 values are expressed as the negative base-10 logarithm of concentration in M.

Exercise: Observed pIC50 on OCI-Ly7 for H-HHHHHHPTATHAGLVATVKEAGRSIHEI-OH , please.
Solution: 4.95

====

Molecular target: B-cell lymphoma 6 protein (Homo sapiens, UniProt P41182)
Test: Binding affinity to BCL6 BTB domain (5 to 129 residues) (unknown origin) expressed in Escherichia coli using 5-TAMRA-RSEIISTAPSSWVVPGP as substrate incubated for 1 hrs by FP assay
readout kind: Kd
Quote the value and follow it with the unit of measurement.

Exercise: So what's the measured Kd for this one? Cc1cc(C)n(-c2ncc(Cl)c(Nc3ccc(Cl)cc3)n2)n1
Solution: 18 µM

====

Molecular target: B-cell lymphoma 6 protein (Homo sapiens, UniProt P41182)
Assay: Binding affinity to BCL6 BTB domain (5 to 129 residues) (unknown origin) expressed in Escherichia coli by SPR analysis
readout kind: Kd (µM)
Report as a plain number; the unit µM is understood.

Exercise: So what's the measured Kd for this one? Cc1cc(C)n(-c2ncc(Cl)c(Nc3ccc(Cl)cc3)n2)n1
Solution: 20

====

System: SU-DHL-6
Test: Antitumor activity against BCL6 dependent human SU-DHL-6 cells assessed as cell growth inhibition
Assay type: functional, cell-based
readout kind: pIC50
Note: pIC50 values are expressed as the negative base-10 logarithm of concentration in M.

Exercise: So what's the measured pIC50 for this one? C[C@@H]1CN(c2ncc(F)c(Nc3ccc(NC(=O)c4cccc(Br)n4)cc3)n2)C[C@H](C)N1
Solution: 5.96

====

Test system: Farage
Experiment: Antitumor activity against BCL6 dependent human Farage cells assessed as cell growth inhibition
Format: functional, cell-based
readout kind: IC50 (nM)
Report as a plain number; the unit nM is understood.

Exercise: So what's the measured IC50 for this one? C[C@@H]1CN(c2ncc(F)c(Nc3ccc(NC(=O)c4cccc(Br)n4)cc3)n2)C[C@H](C)N1
Solution: 1100

====

Target: B-cell lymphoma 6 protein (Homo sapiens)
Experiment: Binding affinity to wild type full length BCL6 BTB domain having SMRT BBD motif sequence (unknown origin) transfected in human HEK293 cells by electrophoretic mobility shift assay
Type: cell-based
readout kind: pKd
Note: pKd values are expressed as the negative base-10 logarithm of concentration in M.

Exercise: So what's the measured pKd for this one? H-HHHHHHPTATHAGLVATVKEAGRSIHEI-OH
Solution: 4.99
